# measured-target: motilin receptors located on the colon of mature rabbits (Oryctolagus cuniculus)
# Construct: The colon from mature New Zealand rabbits was removed, dissected free from the mucosa and serosa layers, and diced into small pieces; from tissue; host or cells: colon smooth muscle of mature New Zealand rabbits, crude membrane homogenate
# Sequence (G1T803 1-400): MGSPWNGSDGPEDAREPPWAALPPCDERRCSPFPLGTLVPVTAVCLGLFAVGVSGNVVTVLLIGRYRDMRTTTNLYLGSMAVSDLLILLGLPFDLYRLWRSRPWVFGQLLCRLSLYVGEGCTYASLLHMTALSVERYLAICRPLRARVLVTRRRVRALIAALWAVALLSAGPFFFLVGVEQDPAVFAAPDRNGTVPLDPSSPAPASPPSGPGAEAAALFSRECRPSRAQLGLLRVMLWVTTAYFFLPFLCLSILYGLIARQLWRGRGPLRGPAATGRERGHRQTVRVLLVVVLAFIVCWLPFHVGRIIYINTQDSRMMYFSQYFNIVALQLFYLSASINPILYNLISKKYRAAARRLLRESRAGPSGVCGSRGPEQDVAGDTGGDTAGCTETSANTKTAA
# test-method-notes: competition with radiolabeled (125I) porcine motilin for the motilin receptors of rabbit colon
# Type: binding
# condition-parameters: @ 10 μM
value-kind: inhibition at 10 µM
Number first, unit second.

I would be grateful if you could share the reported inhibition at 10 µM for CCN(CC)CCN(CC1=CC(Cc2ccccc2)(NC(=O)C(Cl)(Cl)Cl)CC1)c1ccccc1OCCN1CCOCC1 (centres unmarked) .
80%

I would be grateful if you could share the reported inhibition at 10 µM for COc1ccc(N(CC2=CC(Cc3ccccc3)(NC(=O)C(Cl)(Cl)Cl)CC2)C(=O)c2ccccc2)cc1OCCN1CCOCC1 (centres unmarked) .
74%

I would be grateful if you could share the reported inhibition at 10 µM for CCN(CC)CCN(CC1=CC(Cc2ccccc2)(NC(=O)C(Cl)(Cl)Cl)CC1)c1ccccc1O (centres unmarked) .
84%

I would be grateful if you could share the reported inhibition at 10 µM for O=C(NC1(Cc2ccccc2)C=C(CNCCc2cccc(SCCN3CCOCC3)c2)CC1)C(Cl)(Cl)Cl (centres unmarked) .
81%

I would be grateful if you could share the reported inhibition at 10 µM for O=C(Nc1ccccc1)N(CC1=CC(Cc2ccccc2)(NC(=O)C(Cl)(Cl)Cl)CC1)c1cccc(SCCN2CCOCC2)c1 (centres unmarked) .
83%

Please supply inhibition at 10 µM for each of the following items, keeping them in order.
1. O=C(c1ccc(F)cc1)N(CC1=CC(Cc2ccccc2)(NC(=O)C(Cl)(Cl)Cl)CC1)c1cccc(SCCN2CCOCC2)c1 (centres unmarked)
2. O=C(NC1(Cc2ccccc2)C=C(CNc2cccc(OCCN3CCOCC3)c2)CC1)C(F)(F)F (centres unmarked)

1. 79%
2. 25%

Please supply inhibition at 10 µM for each of the following items, keeping them in order.
1. O=C(NC1(Cc2ccccc2)C=C(CNc2ccc(O)cc2)CC1)C(Cl)(Cl)Cl (centres unmarked)
2. COc1ccc(N(CC2=CC(Cc3ccccc3)(NC(=O)C(Cl)(Cl)Cl)CC2)Cc2ccccc2)cc1OCCN1CCOCC1 (centres unmarked)
3. COc1ccc(N(CCN2CCOCC2)CC2=CC(Cc3ccccc3)(NC(=O)C(Cl)(Cl)Cl)CC2)cc1OCCN1CCOCC1 (centres unmarked)

11%
62%
27%

----------
# measured-target: motilin receptors located on the colon of mature rabbits (Oryctolagus cuniculus)
# Construct: The colon from mature New Zealand rabbits was removed, dissected free from the mucosa and serosa layers, and diced into small pieces; from tissue; host or cells: colon smooth muscle of mature New Zealand rabbits, crude membrane homogenate
# test-method-notes: competition with radiolabeled (125I) porcine motilin for the motilin receptors of rabbit colon
# Format: binding
# condition-parameters: @ 0.1 μM
# binarize inhibition at 0.1 µM: threshold 50% inclusive, high side condition met, low side condition not met

Some solved cases for reference:
Dear colleague, could you confirm whether O=C(c1cccc2ccccc12)N(CC1=CC(Cc2ccccc2)(NC(=O)C(Cl)(Cl)Cl)CC1)c1cccc(OCCN2CCOCC2)c1 (centres unmarked) has inhibition at 0.1 µM at or above 50%?
condition not met

Dear colleague, could you confirm whether O=C(c1ccc(C(F)(F)F)cc1)N(CC1=CC(Cc2ccccc2)(NC(=O)C(Cl)(Cl)Cl)CC1)c1cccc(OCCN2CCOCC2)c1 (centres unmarked) has inhibition at 0.1 µM at or above 50%?
condition not met

Dear colleague, could you confirm whether O=C(c1ccc(Br)cc1)N(CC1=CC(Cc2cccc(Cl)c2)(NC(=O)C(Cl)(Cl)Cl)CC1)c1cccc(OCCN2CCOCC2)c1 (centres unmarked) has inhibition at 0.1 µM at or above 50%?
condition met

Dear colleague, could you confirm whether O=C(c1cccc(C(F)(F)F)c1)N(CC1=CC(Cc2ccccc2)(NC(=O)C(Cl)(Cl)Cl)CC1)c1cccc(OCCCN2CCOCC2)c1 (centres unmarked) has inhibition at 0.1 µM at or above 50%?
condition met

Dear colleague, could you confirm whether O=C(NC1(Cc2ccccc2)C=C(CN(C(=S)Nc2ccccc2)c2cccc(OCCN3CCOCC3)c2)CC1)C(Cl)(Cl)Cl (centres unmarked) has inhibition at 0.1 µM at or above 50%?
condition not met

Dear colleague, could you confirm whether O=C(c1ccc(F)cc1)N(CC1=CC(NC(=O)C(Cl)(Cl)Cl)(c2ccccc2)CC1)c1cccc(OCCN2CCOCC2)c1 (centres unmarked) has inhibition at 0.1 µM at or above 50%?
condition not met

Now for a further compound.
Dear colleague, could you confirm whether O=C(Nc1ccccc1)N(CC1=CC(Cc2cccc(Cl)c2)(NC(=O)C(Cl)(Cl)Cl)CC1)c1cccc(OCCN2CCOCC2)c1 (centres unmarked) has inhibition at 0.1 µM at or above 50%?
condition met
